# ASSAYED SYSTEM: human CD40 on cells (human, UniProt P25942 21-277)
# Sequence (P25942 21-277): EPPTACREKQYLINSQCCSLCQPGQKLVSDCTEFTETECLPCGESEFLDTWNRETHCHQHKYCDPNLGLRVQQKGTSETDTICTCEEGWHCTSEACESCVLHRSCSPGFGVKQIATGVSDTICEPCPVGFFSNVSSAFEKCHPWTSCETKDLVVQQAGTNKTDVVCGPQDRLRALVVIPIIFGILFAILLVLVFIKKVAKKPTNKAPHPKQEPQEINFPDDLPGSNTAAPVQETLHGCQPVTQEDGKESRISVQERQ
# TEST METHOD NOTES: cell-based or functional assay
MEASURED QUANTITY: Maximum fold (fold), crosslinked
Number only, in fold; omit the unit.

[
  {
    "BINDER": "PR006515 (antibody, human IgG1, kappa, V domains shown, PR003379 variant L:S93M; human IgG1 L234A, L235A, G237A) VH: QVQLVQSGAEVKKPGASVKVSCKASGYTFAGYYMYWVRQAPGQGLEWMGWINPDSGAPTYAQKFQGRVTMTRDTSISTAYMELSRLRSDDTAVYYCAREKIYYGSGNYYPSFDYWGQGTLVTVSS VL: DIQLTQSPSFLSASVGDRVTITCRASQGISSYLAWYQQKPGKAPKLLIYAASTLQSGVPSRFSGSGSGTEFTLTISSLQPEDFATYYCQQLNMYPWTFGQGTKVEIKR",
    "UNITS LABEL": "fold",
    "READOUT VALUE": 4.91
  },
  {
    "BINDER": "PR006495 (antibody, human IgG1, kappa, V domains shown, PR003379 variant L:N92A; human IgG1 L234A, L235A, G237A) VH: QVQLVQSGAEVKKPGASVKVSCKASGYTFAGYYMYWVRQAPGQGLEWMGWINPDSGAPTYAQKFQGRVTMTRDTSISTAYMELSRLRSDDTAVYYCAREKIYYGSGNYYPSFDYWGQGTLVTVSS VL: DIQLTQSPSFLSASVGDRVTITCRASQGISSYLAWYQQKPGKAPKLLIYAASTLQSGVPSRFSGSGSGTEFTLTISSLQPEDFATYYCQQLASYPWTFGQGTKVEIKR",
    "UNITS LABEL": "fold",
    "READOUT VALUE": 5.54
  },
  {
    "BINDER": "PR006499 (antibody, human IgG1, kappa, V domains shown, PR003379 variant L:N92W; human IgG1 L234A, L235A, G237A) VH: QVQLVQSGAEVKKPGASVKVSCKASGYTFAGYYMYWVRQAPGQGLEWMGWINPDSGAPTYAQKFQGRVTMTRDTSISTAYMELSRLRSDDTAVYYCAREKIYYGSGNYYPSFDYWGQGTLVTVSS VL: DIQLTQSPSFLSASVGDRVTITCRASQGISSYLAWYQQKPGKAPKLLIYAASTLQSGVPSRFSGSGSGTEFTLTISSLQPEDFATYYCQQLWSYPWTFGQGTKVEIKR",
    "UNITS LABEL": "fold",
    "READOUT VALUE": 5.28
  },
  {
    "BINDER": "PR006502 (antibody, human IgG1, kappa, V domains shown, PR003379 variant L:N92D; human IgG1 L234A, L235A, G237A) VH: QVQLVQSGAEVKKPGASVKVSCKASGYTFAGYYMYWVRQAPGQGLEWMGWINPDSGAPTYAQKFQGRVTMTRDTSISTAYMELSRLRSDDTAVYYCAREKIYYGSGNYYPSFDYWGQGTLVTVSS VL: DIQLTQSPSFLSASVGDRVTITCRASQGISSYLAWYQQKPGKAPKLLIYAASTLQSGVPSRFSGSGSGTEFTLTISSLQPEDFATYYCQQLDSYPWTFGQGTKVEIKR",
    "UNITS LABEL": "fold",
    "READOUT VALUE": 4.95
  }
]

Please turn your attention to the following entry.
Entry under review: PR006497 (antibody, human IgG1, kappa, V domains shown, PR003379 variant L:N92Y; human IgG1 L234A, L235A, G237A) VH: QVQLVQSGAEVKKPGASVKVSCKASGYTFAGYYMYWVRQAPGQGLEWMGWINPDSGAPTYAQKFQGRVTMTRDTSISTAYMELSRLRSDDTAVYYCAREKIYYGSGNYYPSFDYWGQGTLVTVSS VL: DIQLTQSPSFLSASVGDRVTITCRASQGISSYLAWYQQKPGKAPKLLIYAASTLQSGVPSRFSGSGSGTEFTLTISSLQPEDFATYYCQQLYSYPWTFGQGTKVEIKR . Reported Maximum fold (fold), crosslinked? 4.77

Reference for the values: patent US20250215100A1
